# TEST_DETAILS: Pharmacokinetics after oral gavage in mice
# Type: in vivo
# TEST_SETTINGS: mouse, in vivo, oral gavage 50 mg/Kg
READOUT_TYPE: half-life

Could you please provide reported half-life for O=C(Nc1cccc(Cl)c1)Nc1nc2ccc([N+](=O)[O-])cc2s1 ? Thanks!
> 190 min

----------
# System: OCI-AML3
# TEST_DETAILS: XTT cell viability assay, OCI-AML3
# Type: cell-based, human
# TEST_SETTINGS: XTT assay (48 h); standard deviation of 10%; read-out: EC50 (μM) AML OCI-AML3
READOUT_TYPE: EC50

Could you please provide reported EC50 for O=C(Nc1ccc([N+](=O)[O-])cc1O)Nc1ccccc1Br [SB-225002, reference compound] ? Thanks!
90 µM
